# PROTOCOL_SUMMARY: chemical genetic growth profiling, strain panel (AID 1159580);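 further: tested at 20 µM; growth read once vehicle control cultures reached saturation at 30 °C; 1 = growth at the plate median or of vehicle wells; lower values mean less growth of the strain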
# CONDITION_SUMMARY: S. cerevisiae deletion strains, growth OD, locus YNL250W, strain rad50, active compounds read low
Among all 5,500 compounds or so, about 2,000 (36%) were called active. About 18% were inconclusive and are not listed. The list shows a part of the results.
So I've got a bunch of compounds here, and I need their normalized growth values.
Answer with a number only.

input: What normalized growth value was documented for this compound, CC(=O)O[C@H]1C[C@@H](OC(C)=O)C(C)(C)C2C[C@@H](OC(C)=O)[C@]3(C)C(CC[C@@]4(C)[C@H](c5ccoc5)OC(=O)[C@H]5O[C@]543)[C@]21C (stereo partly drawn) ?
output: 0.98

input: Note, next up: Cc1cccc(C)c1NC(=O)C1CCCCN1C (stereo not drawn)
output: 0.999

input: Note, next up: COc1ccc2oc(-c3ccccc3)c(OC)c(=O)c2c1
output: 0.9

input: Note, next up: CC(=O)O[C@@H]1CC2C(C)(C)[C@H](O)CC[C@]2(C)C2CC[C@@]3(C)[C@H](c4ccoc4)OC(=O)[C@H]4O[C@]43[C@@]21C (stereo partly drawn)
output: 1.04

input: Note, next up: CC(=O)O[C@@H]1CC2C(C)(C)C(=O)C3OC3[C@]2(C)C2CC[C@@]3(C)[C@H](c4ccoc4)OC(=O)C4OC43[C@@]21C (stereo partly drawn)
output: 0.983

input: Note, next up: CC(=O)O[C@H]1CC[C@@]2(C)C(C[C@@H](OC(C)=O)[C@]3(C)C2CC[C@@]2(C)[C@H](c4ccoc4)OC(=O)[C@H]4O[C@]423)C1(C)C (stereo partly drawn)
output: 1.05

input: Note, next up: NCCCC(=O)O
output: 1.03

input: Note, next up: C=NC(C(=O)NC1C(=O)N2C1SC(C)(C)C2C(=O)O)c1ccccc1 (stereo not drawn)
output: 1.01

input: Note, next up: Cc1onc(-c2ccccc2)c1-c1ccc(S(N)(=O)=O)cc1
output: 0.991

input: Note, next up: CC(=O)O[C@@H]1CC2C(C)(C)[C@@H](O)CC[C@]2(C)C2CC[C@@]3(C)[C@H](c4ccoc4)OC(=O)[C@H]4O[C@]43[C@@]21C (stereo partly drawn)
output: 1.04

input: Note, next up: COc1ccc2oc3ccccc3c(=O)c2c1
output: 0.866

input: Note, next up: CN1CCC[C@@H]1CCO[C@](C)(c1ccccc1)c1ccc(Cl)cc1
output: 0.986

input: Note, next up: COP(=S)(OC)Oc1ccc([N+](=O)[O-])cc1
output: 0.981

input: Note, next up: NC1(C(=O)O)CCC1
output: 0.948

input: Note, next up: Cc1ccc(C(=O)c2ccc(CC(=O)O)n2C)cc1
output: 0.987

input: Note, next up: CCCCCCCCCCCCCC(=O)OC1C(C)C2(O)C(C=C(CO)CC3(O)C(=O)C(C)=CC32)C2C(C)(C)C12OC(C)=O (stereo not drawn)
output: 0.981

input: Note, next up: NC(N)=NCCN1CCCCCCC1
output: 1.01

input: Note, next up: O=C(O)C(O)C(O)C(O)C(O)C(=O)O (stereo not drawn)
output: 0.972

input: Note, next up: CN(C)C(=O)Oc1ccc[n+](C)c1
output: 1.02

input: Note, next up: C[C@@H]1CC[C@H]2C(C)(C)C3CC12CC[C@@]3(C)O (stereo partly drawn)
output: 0.956

input: Note, next up: CN=C(N)NCCCC(N)C(=O)O (stereo not drawn)
output: 1.02

input: Note, next up: NC(=O)NC1NC(=O)NC1=O (stereo not drawn)
output: 0.981

input: Note, next up: O=C(O)COc1ccc(Cl)cc1Cl
output: 1.02

input: Note, next up: CC1CCC(NC(=O)N(CCCl)N=O)CC1 (stereo not drawn)
output: 0.94

input: Note, next up: N[C@@H](C(=O)O)[C@@H](O)[C@H](O)[C@H](O)CO
output: 1.03

input: Note, next up: O=NN(CCCl)C(=O)NCCCl
output: 0.852

input: Note, next up: NCCCCNCCCN
output: 0.962

input: Note, next up: O=C(O)C(O)C(O)C(=O)O (stereo not drawn)
output: 0.987

input: Note, next up: CC(C)c1nc(N(C)S(C)(=O)=O)nc(-c2ccc(F)cc2)c1/C=C/[C@@H](O)C[C@@H](O)CC(=O)O
output: 0.982

input: Note, next up: CCCCCCCCCCCC(=O)OCC(COP(=O)(O)OCC(O)COP(=O)(O)OCC(COC(=O)CCCCCCCCCCC)OC(=O)CCCCCCCCCCC)OC(=O)CCCCCCCCCCC (stereo not drawn)
output: 1.02

input: Note, next up: NC(N)=NCCCCN=C(N)N
output: 0.98

input: Note, next up: Fc1ccc([C@@H]2CCNC[C@H]2COc2ccc3c(c2)OCO3)cc1
output: 1

input: Note, next up: CC(=O)OCC(=O)[C@@]1(O)CCC2C3CCC4=CC(=O)C=CC4(C)C3[C@@H](O)C[C@@]21C (stereo partly drawn)
output: 1.01

input: Note, next up: Oc1c(Cl)cc(Cl)c(Cl)c1Cc1c(O)c(Cl)cc(Cl)c1Cl
output: 0.232

input: Note, next up: Cc1oncc1C(=O)Nc1ccc(C(F)(F)F)cc1
output: 0.98

input: Note, next up: O=C(O)CCC1NCC2CC1CN1CCCCC21 (stereo not drawn)
output: 1.01

input: Note, next up: CC(=O)O[C@H]1C[C@@]2(C)[C@@H](C[C@@H](O)C3[C@]2(C)CC[C@H]2[C@H](C)[C@H](O)CC[C@]32C)/C1=C(/CCC=C(C)C)C(=O)O (stereo partly drawn)
output: 1.03

input: Note, next up: NC1(C(=O)O)CCCC1
output: 1.02

input: Note, next up: Clc1ccc(CSC(Cn2ccnc2)c2ccc(Cl)cc2Cl)cc1 (stereo not drawn)
output: 0.0722

input: Note, next up: Clc1ccc(COC(Cn2ccnc2)c2ccc(Cl)cc2Cl)cc1 (stereo not drawn)
output: 0.0799

input: Note, next up: NCC[C@@H](O)C(=O)N[C@@H]1C[C@H](N)[C@@H](O[C@H]2O[C@H](CN)[C@@H](O)[C@H](O)[C@H]2O)[C@H](O)[C@H]1O[C@H]1O[C@H](CO)[C@@H](O)[C@H](N)C1O (stereo partly drawn)
output: 1.01

input: Note, next up: Cc1cc(CC(=O)O)n(C)c1C(=O)c1ccc(Cl)cc1
output: 1.01

input: Note, next up: CC(C)(S)[C@@H](N)C(=O)O
output: 0.985
